Let's look at some binders and their measured pKd.
Biological target: T1, mouse serum albumin (mouse, UniProt P07724 25-608)
T1 construct: Immobilised on SPR chips; also called mouseSA; MSA
Assay: SPR Biacore 8K+ SCK, albumin on chip, pH 7.4
The value called pKd is obtained by taking minus log10 of the concentration in mol/L.

The examples below pair each entry with its known result.
| binder | pKd |
| --- | --- |
| Alb23 Y60A (VHH, VHH alone) VHH: EVQLLESGGGLVQPGGSLRLSCAASGFTFRSFGMSWVRQAPGKGPEWVSSISGSGSDTLAADSVKGRFTISRDNSKNTLYLQMNSLRPEDTAVYYCTIGGSLSRSSQGTLVTVSS | 7.37 |
| Alb23 S35A (VHH, VHH alone) VHH: EVQLLESGGGLVQPGGSLRLSCAASGFTFRSFGMAWVRQAPGKGPEWVSSISGSGSDTLYADSVKGRFTISRDNSKNTLYLQMNSLRPEDTAVYYCTIGGSLSRSSQGTLVTVSS | 7.43 |
| Alb23 M34A (VHH, VHH alone) VHH: EVQLLESGGGLVQPGGSLRLSCAASGFTFRSFGASWVRQAPGKGPEWVSSISGSGSDTLYADSVKGRFTISRDNSKNTLYLQMNSLRPEDTAVYYCTIGGSLSRSSQGTLVTVSS | 6.83 |

Turning now to a further record.
Quick one: pKd of Alb23 D62A (VHH, VHH alone) VHH: EVQLLESGGGLVQPGGSLRLSCAASGFTFRSFGMSWVRQAPGKGPEWVSSISGSGSDTLYAASVKGRFTISRDNSKNTLYLQMNSLRPEDTAVYYCTIGGSLSRSSQGTLVTVSS ?
7.44
